- ASSAY NOTES: Light generation from compounds following incubation with hydrogen peroxide in different pH solutions (D-cysteine conversion, LDR)
- Type: biochemical
- APPLIED CONDITIONS: pH 10.4 Tris buffer, No H2O2, 60 minutes
# maps each entry to its averaged RLUs (bioluminescence)

Task: State the recorded averaged RLUs (bioluminescence) for this entry: `CC1(C)OB(c2ccc(COc3ccc4nc(C#N)sc4c3)cc2F)OC1(C)C`
Output: 230,459 RLU

* * *

- ASSAY NOTES: Generation of bioluminescence from luciferin borates upon treatment with hydrogen peroxide (luciferase light reaction)
- Format: biochemical
- APPLIED CONDITIONS: H2O2 0 μM, phosphate buffer pH 7.73, 70 minutes
- Protocol: In this example, luciferin borates were incubated with hydrogen peroxide, and luciferin generation was measured using a light reaction catalyzed by luciferase. An increase in light output (bioluminescence) as a result of treatment of the luciferin borates with hydrogen peroxide indicates generation of luciferin as a result of the reaction with hydrogen peroxide. […]
Overview of recorded average relative light units (bioluminescence) for various molecules

The examples below pair each entry with its known result.
CC(Oc1ccc2nc(C3=NC(C(=O)O)CS3)sc2c1)c1ccc(B(O)O)cc1 (stereo not shown) [PBI 4425]; 9,302 RLU
O=C(O)C1CSC(c2nc3ccc(OCc4ccc(B(O)O)cc4)cc3s2)=N1 (stereo not shown) [PBI 3048]; 470,830 RLU
O=C(O)C1CSC(c2nc3ccc(OCc4c(B(O)O)ccc5ccccc45)cc3s2)=N1 (stereo not shown) [PBI 4424]; 17,087 RLU

Please examine the following record next.
Task: Field request: average relative light units (bioluminescence) | item: O=C(O)C1CSC(c2nc3ccc(OCc4ccc(B(O)O)c5ccccc45)cc3s2)=N1 (stereo not shown) [PBI 4013]
Output: 573,023 RLU
